target: UniProt O14684; assay: Inhibition of mPGES-1 in human A549 cells assessed as decrease in IL1beta induced PGE2 release preincubated for 30 mins followed by IL-1beta addition after 16 to 20 hrs by HTRF method; type: cell-based
Sequence (O14684 whole entry): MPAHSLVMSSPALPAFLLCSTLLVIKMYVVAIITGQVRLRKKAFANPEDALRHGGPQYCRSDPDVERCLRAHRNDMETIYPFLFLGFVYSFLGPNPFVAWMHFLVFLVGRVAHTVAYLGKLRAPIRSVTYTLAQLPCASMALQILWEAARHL
pIC50: −log10 of the molar value.
parameter: pIC50

CC1(C)Oc2cc(C#Cc3ccccc3C(F)(F)F)ccc2-c2[nH]c(-c3c(F)cccc3Cl)nc21 6.16
CC1(C)Oc2cc(C#Cc3cc(F)ccc3C(F)(F)F)ccc2-c2[nH]c(-c3c(F)cccc3Cl)nc21 6.15
CC1(C)Oc2cc(C#Cc3ccccc3)ccc2-c2[nH]c(-c3c(C#N)cccc3C#N)nc21 6.01
CC1(C)Oc2cc(C#Cc3c(F)cccc3C(F)(F)F)ccc2-c2[nH]c(-c3c(F)cccc3Cl)nc21 6.16

Entry source: ChEMBL document CHEMBL4028818
